Task for the reader: assign each of the following compounds its reported viability, T/C.
Tested on: 967376-340-R-J2-PDC multicell spheroid viability
Assay: Anticancer human tumor 967376-340-R-J2-PDC patient-derived colon adenocarcinoma cell line growth inhibition [PI3K]
Details: compound 0.1 µM; hits give low values

The cases that follow already have their viability, T/C on record.
COc1c(OCCCN2CCOCC2)ccc2c3n(c(=NC(=O)c4cnc(N)nc4)nc12)CCN3 | 60.7% [middle of 8 runs]
CC1(C)CCC(CN2CCN(c3ccc(C(=O)NS(=O)(=O)c4ccc(NCC5CCOCC5)c([N+](=O)[O-])c4)c(Oc4cnc5[nH]ccc5c4)c3)CC2)=C(c2ccc(Cl)cc2)C1 | 94.1% [middle of 4 runs]
CCN1CCN(Cc2ccc(Nc3ncc(F)c(-c4cc(F)c5nc(C)n(C(C)C)c5c4)n3)nc2)CC1 | 82% [middle of 4 runs]
CC(C)NCC(C(=O)N1CCN(c2ncnc3c2C(C)CC3O)CC1)c1ccc(Cl)cc1 (stereo not drawn) | 91.1% [middle of 4 runs]
Cc1nc(NC(=O)N2CCCC2C(N)=O)sc1-c1ccnc(C(C)(C)C(F)(F)F)c1 (stereo not drawn) | 85.3% [middle of 8 runs]
CCCS(=O)(=O)Nc1ccc(F)c(C(=O)c2c[nH]c3ncc(-c4ccc(Cl)cc4)cc23)c1F | 87.8% [middle of 4 runs]
CC(=O)c1c(C)c2cnc(Nc3ccc(N4CCNCC4)cn3)nc2n(C2CCCC2)c1=O | 79% [middle of 4 runs]

Here is another compound to look at.
Provide 967376-340-R-J2-PDC multicell spheroid viability viability, T/C reading for CC(C)n1nc(-c2ccc3oc(N)nc3c2)c2c(N)ncnc21 . 59.2% [middle of 4 runs]

----------
Tested on: 967376-340-R-J2-PDC multicell spheroid viability
Assay: Anticancer human tumor 967376-340-R-J2-PDC cell line growth inhibition [PI3K];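 note: luminescence used as surrogate of cell viability; spheroids exposed to agents for 7 days before read-out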
Conditions: second compound 0.0316 µM; first compound 3.16 µM; hits give low values
Text: Combinatorial screen of targeted agents with the PI3K inhibitors inavolisib, alpelisib, duvelisib, and copanlisib in multi-cell type tumor spheroids A high-throughput screen of multi-cell type tumor spheroids was designed to identify active combinations of targeted small molecules and PI3K pathway inhibitors. […] Compounds. […] If the clinical Cmax for an agent had not been determined, the highest concentration tested was 10 microM. […]
Task for the reader: assign each of the following compounds its reported viability, T/C.
Numbers only, in %.

The cases that follow already have their viability, T/C on record.
CC(C)NCC(C(=O)N1CCN(c2ncnc3c2C(C)CC3O)CC1)c1ccc(Cl)cc1 (stereo not given) + COc1c(OCCCN2CCOCC2)ccc2c3n(c(=NC(=O)c4cnc(N)nc4)nc12)CCN3 | 82.9
Cn1ncc(Cl)c1-c1cc(C(=O)NC(CN)Cc2cccc(F)c2)sc1Cl (stereo not given) + CC(Nc1ccc2c(c1)OCCn1cc(N3C(=O)OCC3C(F)F)nc1-2)C(N)=O | 67.4
CC1(C)CCC(CN2CCN(c3ccc(C(=O)NS(=O)(=O)c4ccc(NCC5CCOCC5)c([N+](=O)[O-])c4)c(Oc4cnc5[nH]ccc5c4)c3)CC2)=C(c2ccc(Cl)cc2)C1 + COc1c(OCCCN2CCOCC2)ccc2c3n(c(=NC(=O)c4cnc(N)nc4)nc12)CCN3 | 62.6
CC1(C)CCC(CN2CCN(c3ccc(C(=O)NS(=O)(=O)c4ccc(NCC5CCOCC5)c([N+](=O)[O-])c4)c(Oc4cnc5[nH]ccc5c4)c3)CC2)=C(c2ccc(Cl)cc2)C1 + Cc1nc(NC(=O)N2CCCC2C(N)=O)sc1-c1ccnc(C(C)(C)C(F)(F)F)c1 | 104

Identify measured viability, T/C associated with C#Cc1c(F)ccc2cc(O)cc(-c3ncc4c(N5CC6CCC(C5)N6)nc(OCC56CCCN5CC(F)C6)nc4c3F)c12 (stereo not given) + Cc1nc(NC(=O)N2CCCC2C(N)=O)sc1-c1ccnc(C(C)(C)C(F)(F)F)c1 80.7
